# ASSAY_TARGET: T1, human IL-23R (human, UniProt Q5VWK5 24-353, limits assumed)
# T1 construct: also called huIL-23R; human interleukin-23R
# T1 sequence: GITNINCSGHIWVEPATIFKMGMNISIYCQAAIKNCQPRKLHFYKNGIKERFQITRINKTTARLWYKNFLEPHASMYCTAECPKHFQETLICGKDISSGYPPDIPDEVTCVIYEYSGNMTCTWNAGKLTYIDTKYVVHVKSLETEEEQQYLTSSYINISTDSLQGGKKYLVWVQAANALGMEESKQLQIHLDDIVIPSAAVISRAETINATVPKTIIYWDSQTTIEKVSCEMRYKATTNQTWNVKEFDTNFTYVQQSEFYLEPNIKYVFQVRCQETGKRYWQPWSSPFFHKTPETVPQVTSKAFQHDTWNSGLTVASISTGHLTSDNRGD
# PROTOCOL_DESCRIPTION: BIAcore SPR, antibody immobilised
binders and their reported Kd
Please state the figure in nM; there is no need to write the unit.

BINDER	Kd, nM
hu8B10-b variant, VH N30S (antibody, V domains shown, also called VH: 8B10-b N30S / VL: 8B10-b) VH: QVQLVESGGGVVQPGRSLRLSCAASGFDFSSYGMSWVRQAPGKGLDLVADINSKSYNYATYYADSVKDRFTISRDNSKNTLYLQMNSLRAEDTAVYYCAVHHSDYFEYWGQGTLVTVSS VL: DIQMTQSPSSLSASVGDRVTITCRASQDIYTNLAWYQQKPGKAPKLLIYHASSLQDGVPSRFSGSGSGTDYTLTISSLQPEDFATYYCLQDSEYPPTFGQGTKVEIKR	0.168
rat anti-human IL-23R antibody 8B10 (antibody, rat IgG2a, V domains shown, also called r8B10) VH: EVKLVESGGGLEQPKGSLKLSCTVSGFDFNSYGMSWVRQAPGKGLDLVADINSKSYNYATYYADSVKDRFTISRDDSQSMVYLEMDNLKTEDTALYYCTVHHSDYFEYWGQGVMVTVSS VL: DIQMTQSPASLSASLGETVSIECLASEDIYNNLAWYQQKPGKSPQLLIYHASSLQDGVPSRFSGSGSGTQYSLKINSLESEDAATYFCLQDSEYPPTFGGGTKLELKR	0.27
hu8B10-b variant, VL D56E (antibody, V domains shown, also called VH: 8B10-b / VL: 8B10-b D56E) VH: QVQLVESGGGVVQPGRSLRLSCAASGFDFNSYGMSWVRQAPGKGLDLVADINSKSYNYATYYADSVKDRFTISRDNSKNTLYLQMNSLRAEDTAVYYCAVHHSDYFEYWGQGTLVTVSS VL: DIQMTQSPSSLSASVGDRVTITCRASQDIYTNLAWYQQKPGKAPKLLIYHASSLQEGVPSRFSGSGSGTDYTLTISSLQPEDFATYYCLQDSEYPPTFGQGTKVEIKR	0.179
hu8B10-b variant, VH N52S (antibody, V domains shown, also called VH: 8B10-b N52S / VL: 8B10-b) VH: QVQLVESGGGVVQPGRSLRLSCAASGFDFNSYGMSWVRQAPGKGLDLVADISSKSYNYATYYADSVKDRFTISRDNSKNTLYLQMNSLRAEDTAVYYCAVHHSDYFEYWGQGTLVTVSS VL: DIQMTQSPSSLSASVGDRVTITCRASQDIYTNLAWYQQKPGKAPKLLIYHASSLQDGVPSRFSGSGSGTDYTLTISSLQPEDFATYYCLQDSEYPPTFGQGTKVEIKR	0.444
chimeric 8B10 full-length antibody (antibody, V domains shown, also called chim8B10) VH: EVKLVESGGGLEQPKGSLKLSCTVSGFDFNSYGMSWVRQAPGKGLDLVADINSKSYNYATYYADSVKDRFTISRDDSQSMVYLEMDNLKTEDTALYYCTVHHSDYFEYWGQGVMVTVSS VL: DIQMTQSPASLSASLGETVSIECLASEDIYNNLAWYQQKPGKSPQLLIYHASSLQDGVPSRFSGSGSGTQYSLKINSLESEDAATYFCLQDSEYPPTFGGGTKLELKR	0.345

Shifting focus to the binder that follows.
Inquiry: Reported Kd for hu8B10-b variant, VH N30D (antibody, V domains shown, also called VH: 8B10-b N30D / VL: 8B10-b) VH: QVQLVESGGGVVQPGRSLRLSCAASGFDFDSYGMSWVRQAPGKGLDLVADINSKSYNYATYYADSVKDRFTISRDNSKNTLYLQMNSLRAEDTAVYYCAVHHSDYFEYWGQGTLVTVSS VL: DIQMTQSPSSLSASVGDRVTITCRASQDIYTNLAWYQQKPGKAPKLLIYHASSLQDGVPSRFSGSGSGTDYTLTISSLQPEDFATYYCLQDSEYPPTFGQGTKVEIKR : what is it?
Reply text: 0.114
